All figures here come from the nanobody polyreactivity screen of Harvey et al. (2022).

Assay: yeast display, Sf9 membrane polyspecificity reagent, FACS + sequencing; frameworks hold sequencing errors
endpoint.name: polyreactivity (PSR sort gate)

Consider the reported polyreactivity (PSR sort gate) for these sequences:
>  <monomer.sequence>
QVQLEESVGGLVQAGGSLRLICAASGSTFVYNAMGWYRPAPGTERELVAAISSGGSTDYADSVKGRFTISRDNAKNTVYLQMNSLKPEDTAVYYCAARPDYRYHYWGQGTQVTVSS

>  <measured.result>
high polyreactivity

$$$$
>  <monomer.sequence>
QVQLVESGGGLVQAGGRLRLSCAASGRIFKWYPMGLYRQAPGKERELVAAITSGGSTYYADSVKGRFTISRDNAKNTVYLQMNSLNPEDTAVYYCAAPVYLYGTVGRGDYWGQGTQVTVSS

>  <measured.result>
high polyreactivity

$$$$
>  <monomer.sequence>
QVQLVESAAGLVQAGVSLRLSCAASGFTLFYYAMGWYRQEPGKERELVAGISRRGGSTYYADSVKGRFTISRDNEKNTVYLQMNSLKPEDTAVYYCAAGLCGYKSDTRGDYWGQGTQVTVSS

>  <measured.result>
low polyreactivity

$$$$
>  <monomer.sequence>
QVQLVESGGGLVQAGGSLRLSCAASGRTLYYKAMGWYRQAPGKERELVAAISRSGGSTYYADSVKGRFTISRDNAKNTVYLQMNSLKPEDTAVYYCAVLPSYTSWESSDYWGQGTQVTVSS

>  <measured.result>
high polyreactivity

$$$$
>  <monomer.sequence>
QVQLVESGGGLVQAGGSLRLSCAASGIIFSGYAMGWYRQAPGKERELVAAITWGGGSTYYADSVKGRFTISRDNAKNTVYLQMNSLKPEDTAVYYCAATWWYEHVRYYSWGQGTQVTVSS

>  <measured.result>
high polyreactivity

$$$$
>  <monomer.sequence>
QVKLLESGGGLLQAGGSLRLSCAASGLTFYPYAMAWYRQAPGKERELVATITWSGTTTYYADSVKGRFTISRDNAKNTVYVQMNSLKPEDTAVYYCAADLWEVVTPYVTIDDDYWGQGTQVTVSS

>  <measured.result>
high polyreactivity

$$$$
>  <monomer.sequence>
QVQLVESGGGLVQAGGSLRLSCAASGRTFVPNAMGWYRQAPGKERELVAAISWSGDSTYYADSVKGRFTISRDNAKNTVYLQMNSLKPEDTAVYYCAADPFFGVSIGGLKYHFDYWGQGTQVTVSS

>  <measured.result>
low polyreactivity

$$$$
>  <monomer.sequence>
QVQLVESGGGLVQAGGSLRLSSAASGNIFDYYAMGCYRQAPGKERELVASISWSGRGTYYADSVKGRFTISRDNAKNTVYVQMTSLKAEDTAVYYCAADGSTVNAPRWSDPYDYWGQGSQVTVSS

>  <measured.result>
low polyreactivity

$$$$
>  <monomer.sequence>
QVQLVESGGGLVQAGGSLRLSCAASGNIFWAYAMGWYRQAPGKERELVAAISGRSGSTYYADSVKGRFTISRDNAKNTVYLQMNSLKPEDTAVYYCNARPRYTSGGYDYWGQGTQVTVSS

>  <measured.result>
low polyreactivity

$$$$
>  <monomer.sequence>
QVQLVESGGGLVQAGGSLRLSFAASGIIFRYSAMGWYRQEPGKERELVAAISRSGARTYYADSVKGRFTISRDNAKNTVYLQMNSLKPEDTAVYYCATDPTSGRFYYWGQGTQVTVSS

>  <measured.result>
high polyreactivity

$$$$

Challenge: Give reported polyreactivity (PSR sort gate) value for QVQLVESGGGLVQAGGSLRISCAASGYTFKNNTMGWYRQAPGKERELVAAISVSGGSTYYADSVKGRFTISRDNAKKTVYLQMNSLKPEDTAVYYCTALREVPLFLVYIGGCYWGQGTQVTVSS
Response given: low polyreactivity
